These entries and their values trace back to paper PMC8908507.

runDescription: Cytotoxicity on Vero cells, MTT method
Type: cell-based, African green monkey
experimentalSetup: African green monkey, Vero cells (normal kidney epithelial cell line)
experimentalEndpoint: viability at 24 h, 40 μg/mL

Prompt: Fill blank: measured viability at 24 h, 40 μg/mL of the compound COc1ccc(/C=C/C=C/C(=O)c2ccc(F)cc2)cc1 [MK12] is ____.
Response: > 80%

* * *

systemUnderTest: MAO-A (Homo sapiens)
Sequence (P21397 whole entry): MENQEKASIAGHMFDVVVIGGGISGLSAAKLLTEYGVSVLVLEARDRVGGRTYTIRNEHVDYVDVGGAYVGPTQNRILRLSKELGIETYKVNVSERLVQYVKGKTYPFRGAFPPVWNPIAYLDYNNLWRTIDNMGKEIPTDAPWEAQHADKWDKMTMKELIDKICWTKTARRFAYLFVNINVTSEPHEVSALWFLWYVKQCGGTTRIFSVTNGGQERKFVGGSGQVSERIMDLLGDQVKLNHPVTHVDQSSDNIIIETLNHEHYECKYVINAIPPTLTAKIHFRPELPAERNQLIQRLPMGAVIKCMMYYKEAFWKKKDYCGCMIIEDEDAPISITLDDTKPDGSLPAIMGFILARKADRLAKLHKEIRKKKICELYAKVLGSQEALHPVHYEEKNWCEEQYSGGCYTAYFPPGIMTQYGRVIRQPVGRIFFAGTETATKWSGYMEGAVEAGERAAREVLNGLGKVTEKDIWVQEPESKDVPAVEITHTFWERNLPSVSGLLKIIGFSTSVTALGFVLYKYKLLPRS
runDescription: biochemical
experimentalSetup: read-out: residual activity (%) MAO-A
experimentalEndpoint: remaining activity at 10 µM (%)
Lab book: enter the figure in %, no units written.

O=C(/C=C/C=C/c1ccccc1)c1ccc(Br)cc1 [MK6] ... 84
COc1ccc(/C=C/C=C/C(=O)c2ccccc2)cc1 [MK14] ... 61.4

API: the following record is the query input.
Prompt: Fill blank: measured remaining activity at 10 µM of the compound O=C(/C=C/C=C/c1ccc(F)cc1)c1ccc(Br)cc1 [MK9] is ____.
Response: 74.9

* * *

systemUnderTest: MAO-B (Homo sapiens, UniProt P27338)
Sequence (P27338 whole entry): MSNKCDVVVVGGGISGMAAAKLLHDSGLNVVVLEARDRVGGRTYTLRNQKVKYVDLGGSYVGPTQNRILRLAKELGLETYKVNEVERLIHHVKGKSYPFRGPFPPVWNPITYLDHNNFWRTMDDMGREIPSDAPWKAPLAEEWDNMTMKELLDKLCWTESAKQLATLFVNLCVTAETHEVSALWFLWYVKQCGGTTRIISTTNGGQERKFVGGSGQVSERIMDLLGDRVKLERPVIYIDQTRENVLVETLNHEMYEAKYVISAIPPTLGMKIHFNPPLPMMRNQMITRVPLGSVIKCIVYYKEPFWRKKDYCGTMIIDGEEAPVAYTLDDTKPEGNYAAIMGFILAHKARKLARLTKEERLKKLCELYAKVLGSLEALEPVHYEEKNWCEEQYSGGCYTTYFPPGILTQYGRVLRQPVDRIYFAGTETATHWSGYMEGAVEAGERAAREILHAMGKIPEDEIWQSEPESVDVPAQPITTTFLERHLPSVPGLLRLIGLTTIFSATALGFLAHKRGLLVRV
runDescription: MAO-B inhibition, recombinant enzyme, benzylamine substrate
experimentalSetup: IC50 MAO-B
This section presents compounds with their documented IC50 values.
Lab book: enter the figure in nM, no units written.

O=C(/C=C/C=C/c1ccc([N+](=O)[O-])cc1)c1ccccc1 [MK15] ... 12.4
O=C(/C=C/C=C/c1ccccc1)c1ccc(Cl)cc1 [MK1] ... 11.2
COc1ccc(/C=C/C=C/C(=O)c2ccc(Cl)cc2)cc1 [MK3] ... 13.1

Prompt: Record O=C(/C=C/C=C/c1ccc(F)cc1)c1ccc(Br)cc1 [MK9] : what is its IC50 with MAO-B (Homo sapiens, UniProt P27338)?
Response: 13.5

Prompt: Record COc1ccc(/C=C/C=C/C(=O)c2ccc(Br)cc2)cc1 [MK8] : what is its IC50 with MAO-B (Homo sapiens, UniProt P27338)?
Response: 16.7

* * *

systemUnderTest: AChE (Electrophorus electricus, UniProt O42275)
Sequence (O42275 24-633): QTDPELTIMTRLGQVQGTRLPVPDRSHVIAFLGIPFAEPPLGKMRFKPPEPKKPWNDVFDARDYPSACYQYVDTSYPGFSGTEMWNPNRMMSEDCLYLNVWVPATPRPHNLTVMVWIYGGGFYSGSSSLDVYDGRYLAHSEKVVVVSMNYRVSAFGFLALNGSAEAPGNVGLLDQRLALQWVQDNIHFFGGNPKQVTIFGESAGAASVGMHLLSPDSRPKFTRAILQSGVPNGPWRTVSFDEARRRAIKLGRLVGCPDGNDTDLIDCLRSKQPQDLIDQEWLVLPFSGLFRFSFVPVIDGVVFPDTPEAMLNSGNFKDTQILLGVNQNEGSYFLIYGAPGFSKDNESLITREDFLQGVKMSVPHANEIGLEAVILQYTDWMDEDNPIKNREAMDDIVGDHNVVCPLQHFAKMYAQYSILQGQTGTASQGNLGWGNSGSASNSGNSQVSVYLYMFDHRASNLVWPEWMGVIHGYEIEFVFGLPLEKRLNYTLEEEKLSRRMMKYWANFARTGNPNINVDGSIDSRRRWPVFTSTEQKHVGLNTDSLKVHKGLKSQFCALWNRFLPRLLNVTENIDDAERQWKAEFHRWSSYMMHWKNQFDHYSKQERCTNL
runDescription: AChE inhibition
experimentalSetup: 10 μM
experimentalEndpoint: residual activity (%) AChE
Provide a numeric answer, followed by its unit.

Reference set, count: 5
COc1ccc(/C=C/C=C/C(=O)c2ccc(Cl)cc2)cc1 [MK3] ... 81.4 ± 1.06%
COc1ccc(/C=C/C=C/C(=O)c2ccc(F)cc2)cc1 [MK12] ... 93.3 ± 0.73%
O=C(/C=C/C=C/c1ccc(Br)cc1)c1ccc(Br)cc1 [MK7] ... 75.8 ± 0.73%
O=C(/C=C/C=C/c1ccc([N+](=O)[O-])cc1)c1ccccc1 [MK15] ... 68.8 ± 0.80%
O=C(/C=C/C=C/c1ccccc1)c1ccc(Cl)cc1 [MK1] ... 84.0 ± 0.23%

Prompt: Record COc1ccc(/C=C/C=C/C(=O)c2ccc(Br)cc2)cc1 [MK8] : what is its residual activity (%) AChE with AChE (Electrophorus electricus, UniProt O42275)?
Response: 86.1 ± 5.10%

Prompt: Record COc1ccc(/C=C/C=C/C(=O)c2ccccc2)cc1 [MK14] : what is its residual activity (%) AChE with AChE (Electrophorus electricus, UniProt O42275)?
Response: 84.7 ± 5.62%

Prompt: Record O=C(/C=C/C=C/c1ccc(Br)cc1)c1ccc(Cl)cc1 [MK2] : what is its residual activity (%) AChE with AChE (Electrophorus electricus, UniProt O42275)?
Response: 82.4 ± 0.98%

Prompt: Record O=C(/C=C/C=C/c1ccccc1)c1ccc(Br)cc1 [MK6] : what is its residual activity (%) AChE with AChE (Electrophorus electricus, UniProt O42275)?
Response: 74.7 ± 0.66%

Prompt: Record O=C(/C=C/C=C/c1ccc([N+](=O)[O-])cc1)c1ccc(Cl)cc1 [MK5] : what is its residual activity (%) AChE with AChE (Electrophorus electricus, UniProt O42275)?
Response: 74.1 ± 1.42%

Prompt: Record O=C(/C=C/C=C/c1ccc([N+](=O)[O-])cc1)c1ccc(Br)cc1 [MK10] : what is its residual activity (%) AChE with AChE (Electrophorus electricus, UniProt O42275)?
Response: 84.0 ± 0.73%

Prompt: Record O=C(/C=C/C=C/c1ccc([N+](=O)[O-])cc1)c1ccc(F)cc1 [MK13] : what is its residual activity (%) AChE with AChE (Electrophorus electricus, UniProt O42275)?
Response: 91.5 ± 0.80%
